Each recorded value in this set is attributed to ChEMBL document CHEMBL2321813.

- TEST_TARGET: Coagulation factor XI (Homo sapiens, UniProt P03951)
- Sequence (P03951 19-387 limits assumed): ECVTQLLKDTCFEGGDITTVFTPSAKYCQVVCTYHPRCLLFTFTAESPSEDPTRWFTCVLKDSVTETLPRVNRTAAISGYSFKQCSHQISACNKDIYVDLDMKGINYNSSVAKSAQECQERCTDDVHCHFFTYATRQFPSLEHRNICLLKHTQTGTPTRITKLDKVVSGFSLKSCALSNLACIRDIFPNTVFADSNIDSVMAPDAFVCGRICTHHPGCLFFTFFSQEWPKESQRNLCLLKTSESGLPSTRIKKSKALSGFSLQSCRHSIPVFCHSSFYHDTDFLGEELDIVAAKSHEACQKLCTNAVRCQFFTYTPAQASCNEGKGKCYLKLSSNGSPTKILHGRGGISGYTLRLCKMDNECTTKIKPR
- Sequence (P03951 388-625 limits assumed): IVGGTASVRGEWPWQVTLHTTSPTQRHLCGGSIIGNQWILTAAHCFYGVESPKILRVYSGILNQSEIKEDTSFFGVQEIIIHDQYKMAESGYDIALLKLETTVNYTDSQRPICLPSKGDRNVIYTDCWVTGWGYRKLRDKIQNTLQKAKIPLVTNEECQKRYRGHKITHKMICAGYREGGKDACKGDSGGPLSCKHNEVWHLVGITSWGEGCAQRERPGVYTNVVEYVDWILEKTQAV
- MEASUREMENT_NOTES: Inhibition of human factor 11a using S2366 as substrate assessed as residual protease activity after 10 mins by spectrophotometry
MEASUREMENT_NAME: Efficacy (%)

{"columns": ["SMILES_STRING", "Efficacy / %"],
 "data": [
  ["CC(=O)Oc1cc(OS(=O)(=O)O)cc(-c2nc3ccccc3c(=O)n2CCCCn2cc(Cn3c(-c4cc(OS(=O)(=O)O)cc(OS(=O)(=O)O)c4)nc4ccccc4c3=O)nn2)c1", 91],
  ["O=c1c2ccccc2nc(-c2cccc(OS(=O)(=O)O)c2)n1CCCCn1cc(Cn2c(-c3ccc(OS(=O)(=O)O)cc3)nc3ccccc3c2=O)nn1", 103],
  ["O=c1c2ccccc2nc(-c2cccc(OS(=O)(=O)O)c2)n1CCCCn1cc(Cn2c(-c3cc(OS(=O)(=O)O)cc(OS(=O)(=O)O)c3)nc3ccccc3c2=O)nn1", 93]
]}

I = O=c1c2ccccc2nc(-c2ccc(OS(=O)(=O)O)cc2)n1CCCCCCn1cc(Cn2c(-c3ccc(OS(=O)(=O)O)cc3)nc3ccccc3c2=O)nn1
II = COc1cc(-c2nc3ccccc3c(=O)n2CCCCn2cc(COc3cc(-c4oc5cc(OS(=O)(=O)O)cc(OC)c5c(=O)c4OS(=O)(=O)O)ccc3OS(=O)(=O)O)nn2)ccc1OS(=O)(=O)O
query: Pick the one with the larger Efficacy: I vs II Which one? Tell me its label.
result: I
(I: 97%, II: 50%)

###

- TEST_TARGET: Coagulation factor XI (Homo sapiens, UniProt P03951)
- MEASUREMENT_NOTES: Inhibition of human factor 11a using S2366 as substrate assessed as residual protease activity after 10 mins by spectrophotometry
MEASUREMENT_NAME: Efficacy (%)

{"columns": ["SMILES_STRING", "Efficacy [%]"],
 "data": [
  ["O=c1c2ccccc2nc(-c2ccc(OS(=O)(=O)O)cc2)n1CCCCCn1nncc1Cn1c(-c2ccc(OS(=O)(=O)O)cc2)nc2ccccc2c1=O", 94],
  ["CC(=O)Oc1cc(OS(=O)(=O)O)cc(-c2nc3ccccc3c(=O)n2CCCCn2cc(Cn3c(-c4cc(O)cc(OS(=O)(=O)O)c4)nc4ccccc4c3=O)nn2)c1", 96],
  ["COc1cc(-c2nc3ccccc3c(=O)n2CCCCn2cc(Cn3c(-c4cccc(OS(=O)(=O)O)c4)nc4ccccc4c3=O)nn2)ccc1OS(=O)(=O)O", 88]
]}

###

- TEST_TARGET: UniProtKB P03951
- MEASUREMENT_NOTES: Inhibition of human factor 11a using S2366 as substrate assessed as residual protease activity after 10 mins by spectrophotometry
MEASUREMENT_NAME: Efficacy (%)

{"columns": ["SMILES_STRING", "TEST_TARGET", "Efficacy, %"],
 "data": [
  ["COc1cc(OS(=O)(=O)O)cc2oc(-c3ccc(OS(=O)(=O)O)c(OCc4cn(CCCCn5c(-c6cc(OC(C)=O)cc(OS(=O)(=O)O)c6)nc6ccccc6c5=O)nn4)c3)c(OS(=O)(=O)O)c(=O)c12", "UniProtKB P03951", 90],
  ["O=c1c2ccccc2nc(-c2ccc(OS(=O)(=O)O)cc2)n1Cc1cn(CCn2cc(Cn3c(-c4ccc(OS(=O)(=O)O)cc4)nc4ccccc4c3=O)nn2)nn1", "UniProtKB P03951", 98],
  ["O=c1c2ccccc2nc(-c2ccc(OS(=O)(=O)O)cc2)n1CCCCn1cc(Cn2c(-c3ccc(OS(=O)(=O)O)cc3)nc3ccccc3c2=O)nn1", "UniProtKB P03951", 91],
  ["O=c1c2ccccc2nc(-c2ccc(OS(=O)(=O)O)cc2)n1CCCCn1cc(Cn2c(-c3cccc(OS(=O)(=O)O)c3)nc3ccccc3c2=O)nn1", "UniProtKB P03951", 88]
]}

###

- TEST_TARGET: Coagulation factor XI (Homo sapiens, UniProt P03951)
- MEASUREMENT_NOTES: Inhibition of human factor 11a using S2366 as substrate assessed as residual protease activity after 10 mins by spectrophotometry
MEASUREMENT_NAME: Efficacy (%)

{"columns": ["SMILES_STRING", "Efficacy [%]"],
 "data": [
  ["COc1cc(-c2nc3ccccc3c(=O)n2CCCCn2cc(Cn3c(-c4ccc(OS(=O)(=O)O)c(OC)c4)nc4ccccc4c3=O)nn2)ccc1OS(=O)(=O)O", 95],
  ["O=c1c2ccccc2nc(-c2ccc(OS(=O)(=O)O)cc2)n1CCCCCn1cc(Cn2c(-c3ccc(OS(=O)(=O)O)cc3)nc3ccccc3c2=O)nn1", 89],
  ["O=c1c2ccccc2nc(-c2cccc(OS(=O)(=O)O)c2)n1CCCCn1cc(Cn2c(-c3cccc(OS(=O)(=O)O)c3)nc3ccccc3c2=O)nn1", 100]
]}
